The entries below are paired with their reported pEC50.
# Target Under Test: Human 5-HT4(d) transfected HEK293 cells (Homo sapiens)
# Sequence (Q13639 1-360 isoform Q13639-3): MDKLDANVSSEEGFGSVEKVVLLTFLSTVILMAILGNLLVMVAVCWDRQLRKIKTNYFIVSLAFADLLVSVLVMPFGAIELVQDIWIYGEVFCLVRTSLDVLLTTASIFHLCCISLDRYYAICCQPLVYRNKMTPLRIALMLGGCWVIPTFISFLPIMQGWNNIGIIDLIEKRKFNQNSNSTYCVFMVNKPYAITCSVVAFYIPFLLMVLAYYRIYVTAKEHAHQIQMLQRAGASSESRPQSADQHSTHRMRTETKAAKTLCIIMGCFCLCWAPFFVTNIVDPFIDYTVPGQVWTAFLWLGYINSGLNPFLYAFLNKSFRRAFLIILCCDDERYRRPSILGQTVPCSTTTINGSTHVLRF
# Method Summary: Agonist-induced cAMP elevation in human 5-HT4(d) transfected HEK293 cells
# Run Conditions: human 5-HT4(d) transfected HEK293 cells; read-out: cAMP 5HT4 function
# Description: Agonist-Induced cAMP Elevation in Human 5-HT4(d) Transfected HEK293 Cells Human 5-HT4(d) transfected HEK293 cells were established in-house. […] Compounds were prepared in 96-well plates (12.5 μl/well). […] Homogenous time-resolved fluorescence-based cAMP (Schering) detection was made according to the manufacturer's instruction. […] Data was analyzed based on the ratio of fluorescence intensity of each well at 620 nm and 665 nm followed by cAMP quantification using cAMP standard curve. […]
pEC50: −log10 of the molar value.
Observed Property: pEC50

>  <Compound>
O=C(NC1CN2CCC1CC2)c1cc(Cl)cn2ccnc12 (stereo not drawn)

>  <Observed Property>
pEC50

>  <Value Observed>
5.58

$$$$
>  <Compound>
Cc1cn2c(N)c(Cl)cc(C(=O)NCC3CCNCC3)c2n1

>  <Observed Property>
pEC50

>  <Value Observed>
7.87

$$$$
>  <Compound>
CCc1cn2c(N)c(Cl)cc(C(=O)NCC3CCNCC3)c2n1

>  <Observed Property>
pEC50

>  <Value Observed>
7.40

$$$$

====

The listing below reports Ki for compounds tested on rat 5-HT3 receptors (Rattus norvegicus, UniProt P35563).
Sequence (P35563 24-483): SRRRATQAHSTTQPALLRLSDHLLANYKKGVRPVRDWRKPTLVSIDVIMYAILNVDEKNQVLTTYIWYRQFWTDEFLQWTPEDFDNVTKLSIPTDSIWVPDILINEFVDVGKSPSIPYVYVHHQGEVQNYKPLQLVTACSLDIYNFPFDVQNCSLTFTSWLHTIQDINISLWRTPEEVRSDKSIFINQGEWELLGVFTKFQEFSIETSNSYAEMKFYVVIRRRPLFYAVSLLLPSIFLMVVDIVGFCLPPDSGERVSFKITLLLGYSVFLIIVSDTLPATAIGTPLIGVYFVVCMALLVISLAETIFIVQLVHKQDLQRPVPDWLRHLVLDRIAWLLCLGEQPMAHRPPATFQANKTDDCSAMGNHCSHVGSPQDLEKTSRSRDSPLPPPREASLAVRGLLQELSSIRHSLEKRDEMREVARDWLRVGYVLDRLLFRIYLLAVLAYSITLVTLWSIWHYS

>  <Compound>
CN(C)C1(CCNC(=O)c2cc(Cl)cn3ccnc23)CCCCC1

>  <Readout Units>
nM

>  <Ki>
785

$$$$
>  <Compound>
O=C(NC1CN2CCC1CC2)c1cc(Cl)cn2ccnc12 (centres unmarked) [C]

>  <Readout Units>
nM

>  <Ki>
6

$$$$
>  <Compound>
CCCCN1CCC(CNC(=O)c2cc(Cl)cn3ccnc23)CC1 [compound B]

>  <Readout Units>
nM

>  <Ki>
4300

$$$$
>  <Compound>
CCc1cn2c(N)c(Cl)cc(C(=O)NCC3CCNCC3)c2n1 [Example 2]

>  <Readout Units>
nM

>  <Ki>
48

$$$$
>  <Compound>
Cc1cn2c(N)c(Cl)cc(C(=O)NCC3CCNCC3)c2n1 [Example 1]

>  <Readout Units>
nM

>  <Ki>
26

$$$$

====

# Target Under Test: Human 5-HT4(d) (Homo sapiens, UniProt Q13639)
The entries below are paired with their reported Ki.
Observed Property: Ki (nM)

>  <Molecule>
Cc1cn2c(N)c(Cl)cc(C(=O)NCC3CCNCC3)c2n1 [Example 1]

>  <Value Observed>
58

$$$$
>  <Molecule>
CCCCN1CCC(CNC(=O)c2cc(Cl)cn3ccnc23)CC1 [compound B]

>  <Value Observed>
1.1

$$$$
